Data provenance is paper PMC10620772.

Measured inhibition at 10 µM by item
- System: SF-295
- assay_remarks: NCI60 antitumor screening
- Type: cell-based, human
- study_conditions: Homo sapiens; 10 μM single dose; SF-295 (CNS cancer); read-out: growth inhibition percent (GI%)
State just the number; it will be interpreted in %.

Recorded inhibition at 10 µM, per entry:
>  <compound_smiles>
CN1CCN(c2nc(SCc3ccc([N+](=O)[O-])cc3)nc(-c3ccc(F)cc3)c2C#N)CC1

>  <inhibition at 10 µM / %>
29.3

$$$$
>  <compound_smiles>
CN1CCN(c2nc(SCc3ccccc3)nc(-c3ccc(F)cc3)c2C#N)CC1

>  <inhibition at 10 µM / %>
12.3

$$$$
>  <compound_smiles>
Cc1ccc(CSc2nc(-c3ccc(F)cc3)c(C#N)c(N3CCN(C)CC3)n2)cc1

>  <inhibition at 10 µM / %>
17.6

$$$$

## Input What does the record list as inhibition at 10 µM for "CN1CCN(c2nc(SCc3ccc(F)cc3)nc(-c3ccc(F)cc3)c2C#N)CC1" ?
## Output 56.8
